Target Entity: HLA-B*44:02
Test Details: IEDB peptide-MHC binding, purified MHC/direct/fluorescence; filed as Kd, often an IC50 or EC50 that approximates it; bounds were set here for any values at or beyond the usual limits of such assays
Condition Info: source organism: Giardia lamblia ATCC 50803
pKd: −log10 of the molar value.
Outcome Measure: pKd

Fill in: HLA-B*44:02 pKd for `WSFLEDRVY` = ≤ 4.70

Fill in: HLA-B*44:02 pKd for `QTSTLYDFY` = ≤ 4.70

Fill in: HLA-B*44:02 pKd for `SDRLHHDPL` = ≤ 4.70

###

Target Entity: HLA-B*27:05
Test Details: IEDB peptide-MHC binding, purified MHC/direct/fluorescence; filed as Kd, often an IC50 or EC50 that approximates it; bounds were set here for any values at or beyond the usual limits of such assays
Condition Info: source organism: Ebola virus - Gabon (1994-1997)
pKd: −log10 of the molar value.
Outcome Measure: pKd

Entry under test: `YFTFDLTAL` . Its pKd was ≤ 4.70

Ref: the Immune Epitope Database (IEDB)
